Assayed system: 15N-labelled NDM-1 (Klebsiella pneumoniae, UniProt C7C422)
Construct: made in house
Assay explanation: 1H,15N HSQC NMR chemical shift perturbation titration, NDM-1
Assay type: binding
Conditions: Estimated binding constant (Kd), residue 133H_225D, Table S5; per-residue fit, NDM-1 133H_225D
pKd: −log10 of the molar value.
Property name: pKd

>>> print(df.to_string())
                                   compound                            assayed_system  property_name  obs_value
0  O=C(Cc1ccsc1)NC(C1CCCCN1)P(=O)(O)O (stereo not shown)  15N-labelled NDM-1 (Klebsiella pneumoniae, UniProt C7C422)            pKd       2.85

====

Lab note: IC50 readings collected with NDM-1 (Klebsiella pneumoniae, UniProt C7C422) for the following molecules.
Sequence (C7C422 29-270 limits assumed): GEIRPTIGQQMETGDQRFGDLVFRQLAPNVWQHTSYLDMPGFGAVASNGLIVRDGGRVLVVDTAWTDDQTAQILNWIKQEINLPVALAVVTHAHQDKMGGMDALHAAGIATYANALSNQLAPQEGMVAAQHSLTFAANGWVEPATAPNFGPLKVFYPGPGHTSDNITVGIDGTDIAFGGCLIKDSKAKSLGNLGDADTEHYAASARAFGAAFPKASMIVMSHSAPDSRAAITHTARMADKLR
Property name: IC50 (µM)

In [3]: df
Out[3]:
                                   molecule  property_name  obs_value
0  O=C(NC(C1CCCCN1)P(=O)(O)O)c1ccsc1 (stereo not drawn)           IC50        219
1  O=C(Cc1csc2ccccc12)NC(C1CCCCN1)P(=O)(O)O (stereo not drawn)           IC50       27.8
2  O=C(Cc1cccs1)NC(C1CCCCN1)P(=O)(O)O (stereo not drawn) [Compound 5i-2]           IC50        271
3  O=C(Cc1cccs1)NC(C1CCCCN1)P(=O)(O)O (stereo not drawn) [Compound 5i-1]           IC50        296
4  O=C(NC(C1CCCCN1)P(=O)(O)O)c1cc2ccccc2s1 (stereo not drawn) [Compound 5g-2]           IC50       46.8
5  O=C(NC(C1CCCCN1)P(=O)(O)O)c1cccs1 (stereo not drawn)           IC50        230
6  Cl.O=C(Cc1csc2ccccc12)NC(C1CCCCN1)P(=O)(O)O (stereo not drawn)           IC50        7.9
7  O=C(Cc1ccsc1)NC(C1CCCCN1)P(=O)(O)O (stereo not drawn)           IC50        506
8  O=C(NC(C1CCCCN1)P(=O)(O)O)c1cc2ccccc2s1 (stereo not drawn) [Compound 5g-1]           IC50       46.7

====

The following compounds are shown together with reported Kd values.
Assayed system: 15N-labelled NDM-1 (Klebsiella pneumoniae, UniProt C7C422)
Construct: made in house
Assay explanation: 1H,15N HSQC NMR chemical shift perturbation titration, NDM-1
Type: binding
Conditions: Estimated binding constant (Kd), residue 127G, Table S5; per-residue fit, NDM-1 127G
Property name: Kd (mM)

>>> df
                                   compound  obs_value
0  O=C(NC(C1CCCCN1)P(=O)(O)O)c1ccsc1 (centres unmarked)       10.8
1  O=C(Cc1ccsc1)NC(C1CCCCN1)P(=O)(O)O (centres unmarked)       12.4
2  O=C(NC(C1CCCCN1)P(=O)(O)O)c1cccs1 (centres unmarked)       8.34
3  O=C(Cc1cccs1)NC(C1CCCCN1)P(=O)(O)O (centres unmarked) [Compound 5i-2]       1.76
4  O=C(Cc1cccs1)NC(C1CCCCN1)P(=O)(O)O (centres unmarked) [Compound 5i-1]       8.94

Where do these numbers come from? They come from paper PMC10650955.
